Reference for the values: the nanobody polyreactivity screen of Harvey et al. (2022)

procedure-details: yeast display, Sf9 membrane polyspecificity reagent, FACS + sequencing; frameworks hold sequencing errors
endpoint-label: polyreactivity (PSR sort gate)

Some sequences with known polyreactivity (PSR sort gate) results, for comparison:
QVQLVESGGGLVQAGGSLRLSCDASGFIFGRNAMGWYRQAPGKERELVAGISSSGFRTFYADSVKGRFTISRDNAKNTDYLQMNSLKQEDTAVYYCAAEIRYYKYGSYYYWGKGTQVTVSS; high polyreactivity
QVQLVESGGGIVQAGGSLGLSCGASGRTCRKFSMGWYSQAPGNAWEVVAAISSRGGSTYYADSVKGRFTSSRDNAKNTVYLQMNSLIPEDTAVYYCATDSIPPSSEGDYWGQGTQGTVSS; high polyreactivity
QVQLVESGGGLVQAGGSLRLSSAASGSTFFSYAMGWYRQAPGKERELVAAITRSGGSTYYADSVKGRFTISRDNAKNNVYLHMNSLTPEDTSVYYCAVLSALWRVFTERGYWGQGTQVTVSS; high polyreactivity
QVQLVESGGGLVQAGGSLRLSCAASGFIFGDNAMGWYRQAPGKERELVAAINSSGGRTYYADSVKGRFTISRDNAKNTVYLQMNSLKPEDTAVYYCNAAYGIASYGSSYYWGQGTQVTVSS; high polyreactivity
QVQLVESGGGLVQAGGSLRLSCAASGRIFGYYAMGWYRQAPGKEREWVAAINSGGSTNYADSVKGRFTISRDNAKNTVYLQMNSLIPEDTAVYYCAAGWRYRYFRSRNFYPYYYWGQGTQVTVSS; high polyreactivity

Query :: What measured polyreactivity (PSR sort gate) goes with QFQLVESGGGLVQAGGSLRLSCAASGFTFEANAMGWYRKAPGKERELVASITRSDGSTHYADSVKGRFTISRDNAKNTVYLLMNRLKPEDTAVYYCAAVPESLTPKKGYGYWGKGTQVTVSS ?
Result :: low polyreactivity

Query :: What measured polyreactivity (PSR sort gate) goes with QVQLVESGGGLVQAGGSLRLSCAATGRIFGRNAMGWYRQAPGKERELVAAINSGVSTYYADSVKGRFTISRDNAKNTVYLQMNSLKPQDTAVYYCANAPPRRYYDFDYWGQGTQVTVSS ?
Result :: low polyreactivity

====

procedure-details: yeast display, Sf9 membrane polyspecificity reagent, FACS + sequencing; frameworks hold sequencing errors
endpoint-label: polyreactivity (PSR sort gate)

Some sequences with known polyreactivity (PSR sort gate) results, for comparison:
KVQLVESGGGLVQAGGSLRLSCAASGRTFWYYAMGWYRLSPGKERELVAVITSVSSTYYADSVKGRFTISRDNAKNTVYLQMNSLKPEDTAVYYCAVGRTYRRYSAASYNYWGQGTQVTVSS; high polyreactivity
QVQLVESGGGLVQAGGSLRLSCAASGSIFGVNVMGWYRQAPGKERELVASISGGGSTDYADSVKGRFTISRDNAKNTVYLQMNSLKPEDTAVYYCNAKYWWSNYYWGQGTQVTVSS; low polyreactivity
QVQLVESGRGLVQAGGSLRLSSAASGSISLFLTMGWYRQAPGKERELVAAINYTDITKYADSVKGRFTISRDNAKNTVYLQMKSLKPDDTAVYYCARDEGYEYPLGRGGYWGQGTQVTVSS; low polyreactivity
QVQLVESGGGLVQAGGSLRLSCAASGRTFIRYTTGWYRQAPGTERELVAAITSTGRTYYADSVKGRFTISRDNAKNTVYLQMNSLKPEDTAVYYCAAEAGYGDYYYGYDYWGQGTQVTVSS; low polyreactivity
QVQHVESCGGLVQAGGSLRLSCDASGSTFYYYAMGWSRQGPGKERELVAAISLGGGSTYYADSVKGRFTISRDNAKNTVYLHMNSLKPEDSAVYYCAARRVGGGFYTWRNPAYEYWGQGTQVTVSS; high polyreactivity

Query :: What measured polyreactivity (PSR sort gate) goes with QVQLVESGGGLVQAGGSLRLSCAASGSIFYYYAMGWYRQAPGKERELVAAITYRGTRTYYADSVKGRFTISRDNAKNTVYLLMNSLKPEDTAVYYCAAERRIYSSDSWGQGTQVTVSS ?
Result :: high polyreactivity

Query :: What measured polyreactivity (PSR sort gate) goes with QFQLVESGGVLVQAGGILRLSCAASGSIFIDNAMGWYRQEPGKERDLVAAITVRGASTNYADSVKGRFTISRDNAKNTVYLQMNSLKPEDTAVYYCNAVGLRSPWHQDYLIRYDYWGQGTQVTVSS ?
Result :: low polyreactivity

Query :: What measured polyreactivity (PSR sort gate) goes with QVQLVESGGGLVQAGGSLRLSCAASGITFRLYAMGWYRPAPGKERELVAAISKRGGSTYYADSVKGRFTISRDNAKNTVYLQMNSLKPEDTAVYYCAADSGWEHRYDYWGQGTQVTVSS ?
Result :: high polyreactivity

Query :: What measured polyreactivity (PSR sort gate) goes with QVQLVESGGGLVQARGSLRLSCAASGFIFGYYAKGWYRQAPGKERELVAAISPSGGRTYYADSVKGRFTISRDNAKNTVYLQMNILKPEDTAVYYCAAEYAYSLDPVEDYWGQGTLVTVSS ?
Result :: high polyreactivity

Query :: What measured polyreactivity (PSR sort gate) goes with QVQLVESGGGLVQAGGSLRLSCAASGSTFLYYAMGWYTQAPGKERELVAAITVRGGNTYYADSVKGRFTISRDNAKNTVYLQMNSLKPEDTAVYYCAARAYYSFRYDYWGQGTQVTVSS ?
Result :: high polyreactivity

Query :: What measured polyreactivity (PSR sort gate) goes with QVQLVESGGGLVQAGGSLRLSCAASGSIFPPNAMGWYRQAPGKERELVAGISQSGGSTYYADSVKGRFTISRDNAKNTVYLQMNSLKPEDTAVYYCARRSRVGYPLDSWGQGTQVTVSS ?
Result :: high polyreactivity

Query :: What measured polyreactivity (PSR sort gate) goes with QVQLVESGGGLVQAGGSLRLSCAASGSIFVGNAMGWYRQAPGKERELVATITSGCSTYYADSVKGRFTISRDNAMNTVYLQMNSLKPEVTAVYYCAADYDFSKFDYDYWGQGTQVTVSS ?
Result :: low polyreactivity

Query :: What measured polyreactivity (PSR sort gate) goes with QVQLVESGGGLVQAGGSLRLSCAASGIIFWYYAMGWYRQAPGKERELVAAISSGGSTTYADSVKGRFTISRDNAKNTVYLQMKSLKPEDTAVYYCAAVWLSLFKGWVDTHEYDYWGQGTQVTVSS ?
Result :: low polyreactivity
